- assay-summary: Antioxidant activity assessed as trolox equivalents of ABTS radical scavenging activity by TEAC assay
- Type: functional
Exercise: state measured Activity for each of the molecules provided.
Reply with just the number (in mmol).

Entry O=C(O)/C=C/c1ccc(O)c(O)c1 : reported Activity = ?
0.95

Entry CCCCCCCCCCCCCCOC(=O)/C=C/c1ccc(O)c(OC)c1 : reported Activity = ?
1.66

Entry CCCCCCCCCCCCCCOC(=O)/C=C/c1ccc(O)c(O)c1 : reported Activity = ?
0.98

Entry COc1cc(/C=C/C(=O)O)ccc1O [FERULATE] : reported Activity = ?
1.76

Entry CCCCCCCCCCCCCCCCCCOC(=O)/C=C/c1cc(OC)c(O)c(OC)c1 : reported Activity = ?
1.16

Entry CCCCCCCCCCCCCCCCCCOC(=O)/C=C/c1ccc(O)c(OC)c1 : reported Activity = ?
1.8

Entry CCCCCCCCCCCCCCCCOC(=O)/C=C/c1ccc(O)c(O)c1 : reported Activity = ?
0.96

Entry CCCCCCCCCCCCCCCCCCOC(=O)/C=C/c1ccc(O)c(O)c1 : reported Activity = ?
1.02

Entry CCCCCCCCCCCCCCOC(=O)/C=C/c1cc(OC)c(O)c(OC)c1 : reported Activity = ?
1.18

Entry COc1cc(/C=C/C(=O)O)cc(OC)c1O [SINAPINATE] : reported Activity = ?
1.14

Source of measurements: ChEMBL document CHEMBL1667790
